The values you see were collected from paper PMC4684355.

experiment: Pharmacokinetics (half-life, plasma levels) in rats; format: in vivo; details: rat, single dose 1 mg/kg, read-out: half-life (T1/2) (converted)
Property: half-life (min)
Return type: number; implicit unit min.

half-life reading for N[C@@]1(C(=O)O)CC[C@H]2[C@H](C(=O)O)[C@H]21 : 54.6

----------
assay: Pharmacokinetics (half-life, plasma levels) in rats; assay type: in vivo; conditions: rat, single dose 10 mg/kg, read-out: half-life (T1/2) (converted)
Property: half-life (h)
Return type: number; implicit unit h.

half-life reading for FC(F)(F)c1c(N2CCC(c3ccccc3)CC2)ccn2c(CC3CC3)nnc12 [JNJ-42153605] : 2.7
